Listed next: entries and their corresponding MIC.
# Test system: Staphylococcus aureus
# Method Description: In vitro minimum inhibitory concentration for antibacterial activity against Staphylococcus aureus B1 (inducibly MLSb-resistant strain encoded by the erm(C) gene)
# Format: functional

CC[C@H]1OC(=O)[C@H](C)[C@@H](OC2C[C@@](C)(OC)[C@@H](O)[C@H](C)O2)[C@H](C)[C@@H](OC2O[C@H](C)C[C@H](N(C)C)[C@H]2O)[C@@]2(C)C[C@@H](C)[C@H](OC(=O)O2)[C@H](C)[C@H]2OC(=O)O[C@@]21C (some centres not stated) :: > 100 µg/mL

Let us move to another entry and its MIC.
input: Tell me the measured MIC of CC[C@H]1OC(=O)[C@H](C)[C@@H](O)[C@H](C)[C@@H](OC2O[C@H](C)C[C@H](N(C)C)[C@H]2O)[C@@]2(C)C[C@@H](C)[C@H](OC(=O)O2)[C@H](C)[C@H]2OC(=O)O[C@@]21C (some centres not stated) , please.
output: > 100 µg/mL

---

Parameter MIC: see the listing below.
# Test system: Staphylococcus aureus
# Method Description: In vitro minimum inhibitory concentration for antibacterial activity against Staphylococcus aureus B1 (inducibly MLSb-resistant strain encoded by the erm(C) gene)
# Type: functional
Write the numeric value and follow it with the unit.

CC[C@H]1OC(=O)[C@H](C)[C@@H](OC(=O)Cc2cccnc2)[C@H](C)[C@@H](OC2O[C@H](C)C[C@H](N(C)C)[C@H]2O)[C@@](C)(OC)C[C@@H](C)C(=O)[C@H](C)[C@H]2OC(=O)O[C@@]21C (some centres not stated) :: 0.39 µg/mL

input: Item under review: CC[C@H]1OC(=O)[C@H](C)[C@@H](OC(=O)Cc2ccc(OC)cc2)[C@H](C)[C@@H](OC2O[C@H](C)C[C@H](N(C)C)[C@H]2O)[C@@](C)(OC)C[C@@H](C)C(=O)[C@H](C)[C@@H](O)[C@]1(C)O (some centres not stated) . Reported MIC?
output: 12.5 µg/mL

---

# Test system: Staphylococcus aureus
# Method Description: In vitro minimum inhibitory concentration for antibacterial activity against Staphylococcus aureus B1 (inducibly MLSb-resistant strain encoded by the erm(C) gene)
# Format: functional
Recorded MIC for the following compounds

Example entries and their recorded answers appear below.
CC[C@H]1OC(=O)[C@H](C)[C@@H](O[C@H]2C[C@@](C)(OC)[C@@H](O)[C@H](C)O2)[C@H](C)[C@@H](O[C@@H]2O[C@H](C)C[C@H](N(C)C)[C@H]2O)[C@](C)(OC)C[C@@H](C)C(=O)[C@H](C)[C@@H](O)[C@]1(C)O :: > 100 µg/mL
CC[C@H]1OC(=O)[C@H](C)[C@@H](OC(=O)c2cccc(OC)c2)[C@H](C)[C@@H](OC2O[C@H](C)C[C@H](N(C)C)[C@H]2O)[C@@](C)(OC)C[C@@H](C)C(=O)[C@H](C)[C@@H](O)[C@]1(C)O (some centres undefined) :: 50 µg/mL
CC[C@H]1OC(=O)[C@H](C)[C@@H](OC(=O)Cc2cccnc2)[C@H](C)[C@@H](OC2O[C@H](C)C[C@H](N(C)C)[C@H]2O)[C@@](C)(O)C[C@@H](C)/C(=N\O)[C@H](C)[C@H]2OC(=O)O[C@@]21C (some centres undefined) :: 0.39 µg/mL

Please examine the following record next.
input: Quick one: MIC for CC[C@H]1OC(=O)[C@H](C)[C@@H](OC(=O)Cc2cccnc2)[C@H](C)[C@@H](OC2O[C@H](C)C[C@H](N(C)C)[C@H]2O)[C@@](C)(OC)C[C@@H](C)C2=NCCN3C(=O)O[C@@]1(C)[C@H]3[C@H]2C (some centres undefined) ?
output: 0.39 µg/mL
